B1: HDV Ribozyme (parent)
chain: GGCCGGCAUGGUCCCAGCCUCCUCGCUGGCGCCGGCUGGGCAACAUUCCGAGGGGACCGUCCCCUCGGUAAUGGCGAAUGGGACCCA

Variants of: B1
Assay: self-cleavage, relative activity (ratio to wild type); higher = more cleavage; co-transcriptional
Reported endpoint: self-cleavage
I only need the number, thanks.

GGCCGGCAUGGUCCCAGCCUCCUCGCUGGCGCCGGCUGGGCAACAUUCCGAGGAGAUCGUCCCCUCGGUAAUGGCGAAUGGGACCCA [G54A C57U]    1.02

Q) Fill in: self-cleavage of GGCCGGCAUGGUCCCAGCCUCCUCGCUGGCGCCGGCUGGGCAACACUCCGAGGGGACCGUCUCCUCGGUAAUGGCGAAUGGGACCCA [U46C C62U] is ___
A) 0.918

Q) Fill in: self-cleavage of GGCCGACAUGGUCCCAGCCUCCUAGCUGGCGCCGGCUGGGCAACAUUCCGAGGGGACCGUCCCCUCGGUAAUGGCGAAUGGGACCCA [G6A C24A] is ___
A) 0.283

Q) Fill in: self-cleavage of GGCCGGCAUGGUCCCAGCCUCCUCGUUGGCGCCGGCUGGGCAACAUUCCGAGGAGACCGUCCCCUCGGUAAUGGCGAAUGGGACCCA [C26U G54A] is ___
A) 0.774

Q) Fill in: self-cleavage of GGCCGGCAUGGUCCCAGCCUCCUCGCUGGCACCGGCUGGGGAACAUUCCGAGGGGACCGUCCCCUCGGUAAUGGCGAAUGGGACCCA [G31A C41G] is ___
A) 0.106

Q) Fill in: self-cleavage of GGCCGGCAUGGUCCCAGCCUCCUCGCUGGCGCCGGCUGGGCAACAUUCCGAGGGGACCUUCCCCUCGGUAAGGGCGAAUGGGACCCA [G59U U72G] is ___
A) 0.776

Q) Fill in: self-cleavage of GGCCGGCAUCGUGCCAGCCUCCUCGCUGGCGCCGGCUGGGCAACAUUCCGAGGGGACCGUCCCCUCGGUAAUGGCGAAUGGGACCCA [G10C C13G] is ___
A) 0.0723

Q) Fill in: self-cleavage of GGCCGGCAUGGUCCCAGCAUCCUCGCUGGCGCCGGCUGGGCAACAUUCCGAGGGGACCGUCCCCUCGGUAUUGGCGAAUGGGACCCA [C19A A71U] is ___
A) 0.0978

Q) Fill in: self-cleavage of GGCCGGCAUGGUCCCAGCGUCCUCGCUGGCGCCGGCUGGGCAACAUUCCGAGGGGACCGUCCCCUCGGUAAUGGCGAAUGGGACCCG [C19G A87G] is ___
A) 0.16
